biological target: EGFR on the surface of human tumour cells (A431, H292) (human, UniProt P00533 25-1210); experiment: cell-based or functional assay
Recorded Endpoint: % inhibition of EGFR phosphorylation at 100 nM binder, cell-based assay

• E84 (designed binder) 10Fn3 domain: MGVSDVPRDLEVVAATPTSLLISWTLHRKNYQYYRITYGETGGNSPVQEFTVPGGVVTATISGLKPGVDYTITVYAVTDYYNPATHEYDYRTTPISINYRTEIDKPSQ = 86.5%
• E73 (designed binder) 10Fn3 domain: MGVSDVPRDLEVVVATPTSLLISWTKLLGGYQYYRITYGETGGNSPVQEFTVPGPVYTATISGLKPGVDYTITVYAVTDFFNPRTHEYQYHTTPISINYRTEIDKPSQ = 78.8%
• E85 (designed binder) 10Fn3 domain: MGVSDVPRDLEVVAATPTSLLISWTQGSTHYQYYRITYGETGGNSPVQEFTVPGMVYTATISGLKPGVDYTITVYAVTDYFDRSTHEYKYRTTPISINYRTEIDKPSQ = 89.3%
• E82 (designed binder) 10Fn3 domain: MGVSDVPRDLEVVAATPTSLLISWRVLVDMYQYYRITYGETGGNSPVQEFTVPGGVLTATISGLKPGVDYTITVYAVTDYKPHVDGPHTYYESPISINYRTEIDKPSQ = 77.2%
